test system: MDA-MB-468 breast; experiment: NCI-60 one-dose screen, 48 h (100 = growth as untreated, 0 = no growth, -100 = all killed); details: 10 µM unless noted
The panel holds about 83,000 compounds, 20% with a hit somewhere; the sample as a whole holds those more often.
Below is a list of entries, each paired with its recorded growth value.
Numeric answer only, unit % assumed.

Worked set:
COc1cccc(NC(=O)NCCNc2nccc(-c3c(-c4ccc(F)cc4)nc4sccn34)n2)c1 = 94.3
O=C(Nc1cccc2ccccc12)c1cc2ccccc2cc1O = -17.6
CCCCCCCCN(CCCCCCCC)CCCCCCNc1cc(OC)cc2cccnc12 = 68.2

Task item: Tell me measured growth for CC(=O)[C@@H]1CC[C@]2(C(=O)n3ccnc3)CC[C@]3(C)[C@H](CC[C@@H]4[C@@]5(C)Cc6c([nH]c7ccccc67)C(C)(C)[C@@H]5CC[C@]43C)[C@@H]12 please.
Reply: 90.8
